# test system: sigma-1 receptor (Cavia porcellus)
# Construct: their whole brains (without cerebellum) were rapidly removed and homogenized
# Sequence (Q60492 whole entry): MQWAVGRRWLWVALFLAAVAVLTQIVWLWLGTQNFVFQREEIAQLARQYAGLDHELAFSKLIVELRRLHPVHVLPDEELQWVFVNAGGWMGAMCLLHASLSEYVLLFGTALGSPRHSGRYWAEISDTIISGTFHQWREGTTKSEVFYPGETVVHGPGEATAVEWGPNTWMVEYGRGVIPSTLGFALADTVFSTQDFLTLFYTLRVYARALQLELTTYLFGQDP
# assay info: Sigma-1 binding assay ([3H](+)-pentazocine)
# assay context: guinea pig brain membranes, [3H](+)-pentazocine 2.4 nM; Table I
pIC50: −log10 of the molar value.
So basically: pIC50 at 8 or higher? That is 1. Lower than 8? That is -1.

compound="CC(C)(C)c1ccc(CC(N)CN2CCCCCC2)cc1 (stereo not shown)" test_system="sigma-1 receptor (Cavia porcellus)" cat=1
compound="CN(C(=O)Cc1ccc(Cl)c(Cl)c1)C(Cc1ccc(C(C)(C)C)cc1)CN1CCCCCC1 (stereo not shown)" test_system="sigma-1 receptor (Cavia porcellus)" cat=-1
compound="CN(C)C(Cc1ccc(C(C)(C)C)cc1)CN1CCCCCC1 (stereo not shown)" test_system="sigma-1 receptor (Cavia porcellus)" cat=1
compound="NC(Cc1ccc(C(F)(F)F)cc1)CN1CCCCCC1 (stereo not shown)" test_system="sigma-1 receptor (Cavia porcellus)" cat=1
compound="CNC(Cc1ccc(C(C)(C)C)cc1)CN1CCCCCC1 (stereo not shown)" test_system="sigma-1 receptor (Cavia porcellus)" cat=1

* * *

Parameter: inhibition at 0.01 µM. Scope: all listed entries.
# test system: sigma-1 receptor (Cavia porcellus)
# Construct: their whole brains (without cerebellum) were rapidly removed and homogenized; from tissue; host or cells: guinea pig (male Hartley) whole brain without cerebellum, membrane homogenate
# assay info: Sigma-1 binding assay ([3H](+)-pentazocine)
# assay context: inhibition % at 10 nM; guinea pig brain membranes, [3H](+)-pentazocine; Table II; read-out: Sigma 1 Inhib. %
assay endpoint: inhibition at 0.01 µM (%)

compound=COc1ccc(C(=O)C2CCN(C[C@@H](N)Cc3ccccc3)CC2)cc1 unit=% result_number=49.1
compound=N[C@@H](Cc1ccccc1)CN1CCC(C(=O)Cc2ccccc2)CC1 unit=% result_number=43.1
compound="NC(Cc1ccc(Cl)cc1Cl)CN1CCC(Cc2ccccc2)CC1 (stereo not drawn)" unit=% result_number=56.9
compound="NC(CCN1CCC(C(=O)c2ccccc2)CC1)c1ccccc1 (stereo not drawn)" unit=% result_number=13.7
compound="NC(Cc1ccc(Cl)c(Cl)c1)CN1CCC(Cc2ccccc2)CC1 (stereo not drawn)" unit=% result_number=57.3
compound="NC(Cc1ccc(Cl)cc1)CN1CCC(C(=O)c2ccc(F)cc2)CC1 (stereo not drawn)" unit=% result_number=31.1
compound="NC(CCN1CCC(C(=O)c2ccc(F)cc2)CC1)c1ccccc1 (stereo not drawn)" unit=% result_number=-1.9
compound="CNC(CCN1CCC(C(=O)c2ccc(F)cc2)CC1)c1ccccc1 (stereo not drawn)" unit=% result_number=25.2
compound=N[C@@H](Cc1ccccc1)CN1CCC(C(=O)c2ccc(F)cc2)CC1 unit=% result_number=66.7
compound="CC(C)(C)c1ccc(CC(N)CN2CCC(Cc3ccccc3)CC2)cc1 (stereo not drawn)" unit=% result_number=26.1
compound="O=S(=O)(NC(CCN1CCC(Cc2ccccc2)CC1)c1ccccc1)c1ccccc1 (stereo not drawn)" unit=% result_number=35.6
compound="NC(CCCCN1CCCCCC1)c1ccccc1 (stereo not drawn)" unit=% result_number=9.3
compound="O=[N+]([O-])c1cccc(S(=O)(=O)NC(CCN2CCC(Cc3ccccc3)CC2)c2ccccc2)c1 (stereo not drawn)" unit=% result_number=45.7
compound="NC(CCN1CCC(Cc2ccccc2)CC1)c1ccccc1 (stereo not drawn)" unit=% result_number=25.5
compound="NC(Cc1ccc(Cl)c(Cl)c1)CN1CCC(C(=O)c2ccc(Cl)c(Cl)c2)CC1 (stereo not drawn)" unit=% result_number=10.7
compound="CC(C)(C)c1ccc(CC(CN2CCC(Cc3ccccc3)CC2)NC=O)cc1 (stereo not drawn)" unit=% result_number=52.7
compound="NC(Cc1ccc(Cl)cc1Cl)CN1CCC(C(=O)c2ccccc2)CC1 (stereo not drawn)" unit=% result_number=15.3
compound="NC(CCCN1CCCCCC1)c1ccccc1 (stereo not drawn)" unit=% result_number=7.1
compound="O=C(NC(CCN1CCC(Cc2ccccc2)CC1)c1ccccc1)c1ccccc1 (stereo not drawn)" unit=% result_number=44.3
compound="CN(C=O)C(CCN1CCC(Cc2ccccc2)CC1)c1ccccc1 (stereo not drawn)" unit=% result_number=-2
compound="NC(Cc1c(Cl)cccc1Cl)CN1CCCCCC1 (stereo not drawn)" unit=% result_number=33.6
compound="NC(Cc1ccc(Cl)cc1)CN1CCC(C(=O)c2ccc(Cl)cc2)CC1 (stereo not drawn)" unit=% result_number=23.5
compound="CN(C)C(CCN1CCC(Cc2ccccc2)CC1)c1ccccc1 (stereo not drawn)" unit=% result_number=20.3
compound=N[C@@H](Cc1ccccc1)CN1CCC(C(=O)c2ccccc2)CC1 unit=% result_number=39.8
compound="O=CNC(Cc1ccc(Cl)c(Cl)c1)CN1CCC(Cc2ccccc2)CC1 (stereo not drawn)" unit=% result_number=71.9
compound=N[C@H](Cc1ccccc1)CN1CCC(C(=O)c2ccccc2)CC1 unit=% result_number=11.2
compound="Clc1ccc(CCNC(CCN2CCC(Cc3ccccc3)CC2)c2ccccc2)cc1Cl (stereo not drawn)" unit=% result_number=28.8
compound="CC(C)(C)c1ccc(CC(N)CCN2CCC(Cc3ccccc3)CC2)cc1 (stereo not drawn)" unit=% result_number=3.7
compound="CNC(Cc1ccc(Cl)c(Cl)c1)CN1CCC(Cc2ccccc2)CC1 (stereo not drawn)" unit=% result_number=66.1
compound="COc1ccc(C(=O)C2CCN(CC(N)Cc3ccc(Cl)cc3)CC2)cc1 (stereo not drawn)" unit=% result_number=19.5
compound="NC(Cc1ccc(Cl)cc1)CN1CCC(C(=O)c2ccc(Cl)c(Cl)c2)CC1 (stereo not drawn)" unit=% result_number=24.7
compound="O=[N+]([O-])c1ccc(S(=O)(=O)NC(CCN2CCC(Cc3ccccc3)CC2)c2ccccc2)c([N+](=O)[O-])c1 (stereo not drawn)" unit=% result_number=5.7
compound=N[C@@H](Cc1ccccc1)CN1CCC(C(=O)c2ccc(Cl)cc2)CC1 unit=% result_number=61
compound="COc1ccc(C(=O)C2CCN(CCC(N)c3ccccc3)CC2)cc1 (stereo not drawn)" unit=% result_number=3.2
compound="NC(Cc1ccc(Cl)cc1)CN1CCC(C(=O)c2ccccc2)CC1 (stereo not drawn)" unit=% result_number=38.9
compound="NC(Cc1cccc(C(F)(F)F)c1)CN1CCCCCC1 (stereo not drawn)" unit=% result_number=42.9
compound="O=[N+]([O-])c1ccccc1S(=O)(=O)NC(CCN1CCC(Cc2ccccc2)CC1)c1ccccc1 (stereo not drawn)" unit=% result_number=31.6
compound=N[C@@H](Cc1ccccc1)CN1CCC(C(=O)c2ccc(Cl)c(Cl)c2)CC1 unit=% result_number=60.8
compound="NC(Cc1ccc(Cl)cc1Cl)CN1CCCCCC1 (stereo not drawn)" unit=% result_number=73.2
compound="NC(Cc1ccccc1)CN1CCC(C(=O)c2ccccc2)CC1 (stereo not drawn)" unit=% result_number=33.6
compound=CC(C)(C)c1ccc(C(=O)C2CCN(C[C@@H](N)Cc3ccccc3)CC2)cc1 unit=% result_number=66.2
compound="CNC(Cc1ccc(Cl)cc1Cl)CN1CCC(Cc2ccccc2)CC1 (stereo not drawn)" unit=% result_number=75.6
compound="NC(Cc1ccc(Cl)c(Cl)c1)CN1CCC(C(=O)c2ccccc2)CC1 (stereo not drawn)" unit=% result_number=10.8
compound="CNC(CCN1CCC(Cc2ccccc2)CC1)c1ccccc1 (stereo not drawn)" unit=% result_number=36.3
compound="NC(CCN1CCC(C(=O)Cc2ccccc2)CC1)c1ccccc1 (stereo not drawn)" unit=% result_number=2.2

* * *

# test system: sigma-2 receptor (Cavia porcellus)
# Construct: their whole brains (without cerebellum) were rapidly removed and homogenized; from tissue; host or cells: guinea pig (male Hartley) whole brain without cerebellum, membrane homogenate
# Sequence (H0V073 1-176): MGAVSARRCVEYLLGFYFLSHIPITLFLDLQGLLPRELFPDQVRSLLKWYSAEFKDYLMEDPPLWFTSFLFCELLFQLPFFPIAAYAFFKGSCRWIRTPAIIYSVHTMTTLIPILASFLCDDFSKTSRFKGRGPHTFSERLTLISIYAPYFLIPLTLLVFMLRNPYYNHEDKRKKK
# assay info: Sigma-2 binding assay ([3H]DTG in the presence of (+)-SKF10047)
# assay context: Inhibition % at 10 nM; guinea pig brain membranes, [3H]DTG 3.6 nM; Table I; read-out: Sigma 2 Inhib. %
# Method: Sigma-1 and Sigma-2 Binding Assay Methods […] The Sigma-2 selective binding assay was performed using 3.6 nM[^3H]DTG as the radioligand in the presence of 200 nM (+)-SKF10047 to block the Sigma-1 sites, with […] of guinea pig brain membranes in a total volume of 0.5 ml of 50 mM TRIS-HCl, pH8.0. Non-specific binding was determined in the presence of 10° haloperidol. […] IC50 values for sigma-1 or -2 binding assay were calculated using KELL RADLIG v.6.0.5.
A collection of molecules and their measured inhibition at 0.01 µM
assay endpoint: inhibition at 0.01 µM (%)

molecule="CN(C(=O)Cc1ccc(Cl)c(Cl)c1)C(Cc1ccc(C(C)(C)C)cc1)CN1CCCCCC1 (centres unmarked)" unit=% result_number=51.4
molecule="NC(Cc1ccc(Cl)cc1)CN1CCCCCC1 (centres unmarked)" unit=% result_number=36.8
molecule="CC(C)(C)c1ccc(CC(N)CN2CCCCCC2)cc1 (centres unmarked)" unit=% result_number=55.7
molecule="O=C(Cc1ccc(Cl)c(Cl)c1)NC(CCN1CCCCCC1)c1ccccc1 (centres unmarked)" unit=% result_number=27.1
molecule="Clc1ccc(CCNC(CCN2CCCCCC2)c2ccccc2)cc1Cl (centres unmarked)" unit=% result_number=70.2
molecule="NC(Cc1ccc(C(F)(F)F)cc1)CN1CCCCCC1 (centres unmarked)" unit=% result_number=43.9
molecule="CNC(Cc1ccc(C(C)(C)C)cc1)CN1CCCCCC1 (centres unmarked)" unit=% result_number=27.4
molecule="NC(Cc1ccc(Cl)c(Cl)c1)CN1CCCCCC1 (centres unmarked)" unit=% result_number=12.5
